Exercise: state measured DR/DR LNA for each of the molecules provided.
# PROCEDURE SUMMARY: Probe fluorescence ratio response to linolenic acid relative to ADIFAB2
# Type: binding
# REPORTED CONDITIONS: response relative to ADIFAB2
Give bare numbers.

Sample answers from the record:
MOLECULE | DR/DR LNA
38T, 72A (protein, listed as Rattus norvegicus, PEPTIDE (1)...(131) wild-type rat intestinal fatty acid binding protein) AFDGTWKVDRNENYEKFMEKMGINVVKRKLGAHDNLKTTITQEGNKFTVKESSNFRNIDVVFELGVDFAYSAADGTELTGTWTMEGNKLVGKFKRVDNGKELIAVREISGNELIQTYTYEGVEAKRIFKKE | 1.639
14L 18L 73L 117A 72A (protein, listed as Rattus norvegicus, PEPTIDE (1)...(131) wild-type rat intestinal fatty acid binding protein) AFDGTWKVDRNENLEKFLEKMGINVVKRKLGAHDNLKLTITQEGNKFTVKESSNFRNIDVVFELGVDFAYSALDGTELTGTWTMEGNKLVGKFKRVDNGKELIAVREISGNELIQTATYEGVEAKRIFKKE | 0.641

Okay, here is my list. What is DR/DR LNA for each of these?
1. 49T1, 72A (protein, listed as Rattus norvegicus, PEPTIDE (1)...(131) wild-type rat intestinal fatty acid binding protein) AFDGTWKVDRNENYEKFMEKMGINVVKRKLGAHDNLKLTITQEGNKFTTKESSNFRNIDVVFELGVDFAYSAADGTELTGTWTMEGNKLVGKFKRVDNGKELIAVREISGNELIQTYTYEGVEAKRIFKKE
2. 21V, 72A (protein, listed as Rattus norvegicus, PEPTIDE (1)...(131) wild-type rat intestinal fatty acid binding protein) AFDGTWKVDRNENYEKFMEKVGINVVKRKLGAHDNLKLTITQEGNKFTVKESSNFRNIDVVFELGVDFAYSAADGTELTGTWTMEGNKLVGKFKRVDNGKELIAVREISGNELIQTYTYEGVEAKRIFKKE
3. 117L, 72A (protein, listed as Rattus norvegicus, PEPTIDE (1)...(131) wild-type rat intestinal fatty acid binding protein) AFDGTWKVDRNENYEKFMEKMGINVVKRKLGAHDNLKLTITQEGNKFTVKESSNFRNIDVVFELGVDFAYSAADGTELTGTWTMEGNKLVGKFKRVDNGKELIAVREISGNELIQTLTYEGVEAKRIFKKE
4. 72S 73W 74G (protein, listed as Rattus norvegicus, PEPTIDE (1)...(131) wild-type rat intestinal fatty acid binding protein) AFDGTWKVDRNENYEKFMEKMGINVVKRKLGAHDNLKLTITQEGNKFTVKESSNFRNIDVVFELGVDFAYSSWGGTELTGTWTMEGNKLVGKFKRVDNGKELIAVREISGNELIQTYTYEGVEAKRIFKKE
5. 17F, 72A (protein, listed as Rattus norvegicus, PEPTIDE (1)...(131) wild-type rat intestinal fatty acid binding protein) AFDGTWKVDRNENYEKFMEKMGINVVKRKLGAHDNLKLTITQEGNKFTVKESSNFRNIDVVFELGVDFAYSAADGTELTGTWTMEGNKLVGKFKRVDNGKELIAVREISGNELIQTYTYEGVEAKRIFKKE
6. 31V2, 72A (protein, listed as Rattus norvegicus, PEPTIDE (1)...(131) wild-type rat intestinal fatty acid binding protein) AFDGTWKVDRNENYEKFMEKMGINVVKRKLVAHDNLKLTITQEGNKFTVKESSNFRNIDVVFELGVDFAYSAADGTELTGTWTMEGNKLVGKFKRVDNGKELIAVREISGNELIQTYTYEGVEAKRIFKKE
7. 49H1, 72A (protein, listed as Rattus norvegicus, PEPTIDE (1)...(131) wild-type rat intestinal fatty acid binding protein) AFDGTWKVDRNENYEKFMEKMGINVVKRKLGAHDNLKLTITQEGNKFTHKESSNFRNIDVVFELGVDFAYSAADGTELTGTWTMEGNKLVGKFKRVDNGKELIAVREISGNELIQTYTYEGVEAKRIFKKE
8. 72G 73W 74E (protein, listed as Rattus norvegicus, PEPTIDE (1)...(131) wild-type rat intestinal fatty acid binding protein) AFDGTWKVDRNENYEKFMEKMGINVVKRKLGAHDNLKLTITQEGNKFTVKESSNFRNIDVVFELGVDFAYSGWEGTELTGTWTMEGNKLVGKFKRVDNGKELIAVREISGNELIQTYTYEGVEAKRIFKKE

1: 0.64; 2: 0.889; 3: 0.39; 4: 1.706; 5: 1.38; 6: 0.78; 7: 1.54; 8: 5.501

Please supply the value of reported DR/DR LNA for the item 47S1, L72A (protein, listed as Rattus norvegicus, PEPTIDE (1)...(131) wild-type rat intestinal fatty acid binding protein) AFDGTWKVDRNENYEKFMEKMGINVVKRKLGAHDNLKLTITQEGNKSTVKESSNFRNIDVVFELGVDFAYSAADGTELTGTWTMEGNKLVGKFKRVDNGKELIAVREISGNELIQTYTYEGVEAKRIFKKE 0.69

Reference source for all entries: patent US20060257938A1
